// provenance: patent US7763286B2

- Test system: LTC4 release
- assayProcedure: LTC4 release from SCF-stimulated bone marrow-derived mast cells (BMMC), enzyme immunoassay
- Format: cell-based, Balb/c mice
- conditions: Mus musculus, SCF 100 ng/ml stimulation, read-out: LTC4 release inhibition (IC50)
quantityMeasured: IC50
# output: numeric value plus its unit

compound	quantityMeasured	result
CC(c1cc2ccccc2s1)N(O)C(N)=O (centres unmarked) [zileuton]	IC50	110 nM

Looking up C=C(C)[C@@H]1CC[C@]2(C)CC[C@]3(C(=O)O)C(CCC4[C@@]5(C)CC[C@H](O)[C@@](C)(CO)C5CC[C@]43C)C12 (some centres unmarked) [Tiarellic acid, tiarellic acid] , I see its IC50 listed as 2490 nM
